The measured values listed here are drawn from patent US9597407B2.

# Tested on: bacteria
# assay_comment: Binding of targeting peptides to microorganisms (Table 3)
# run_parameters: peptide binding in aqueous buffers that varied depending on peptide solubility; preferably 1x PBS
test_readout: Target(s) (microorganism bound by the targeting peptide)

substance: PF-662 (chain 1 GKQSRAHGPVASRREFRRKSG; chain 2 GKQSRAHGPVASRREFRRKSG; Peptide with targeting and/or antimicrobial activity)
result: Mycobacteria spp

substance: PF-784 (MAMTTVDNIVGLVIAVALMAFLFAALLFPEKF; Peptide with targeting and/or antimicrobial activity)
result: Mycobacteria spp.

substance: PF-660 (chain 1 TDPQATAAPRRRTSPR; chain 2 TDPQATAAPRRRTSPR; Peptide with targeting and/or antimicrobial activity)
result: Mycobacteria spp

substance: PF-667 (chain 1 PAHQRLRIDQRLVADRDMVQDYES; chain 2 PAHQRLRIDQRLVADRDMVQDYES; Peptide with targeting and/or antimicrobial activity)
result: Mycobacteria spp

substance: PF-669 (RADRIESYPADGDRVITLWRNPYR; Peptide with targeting and/or antimicrobial activity)
result: Mycobacteria spp

substance: PF-781 (PLVVVNHRRAERSRG; Peptide with targeting and/or antimicrobial activity)
result: Mycobacteria spp.

###

# Tested on: microorganisms
# assay_comment: Peptide activities: binding, antimicrobial, growth or phenotype altering (Table 8)
test_readout: Activities

substance: PF-744 (chain 1 LGVGTFVGKVLIKNQQKQKSKKKAQ; chain 2 LGVGTFVGKVLIKNQQKQKSKKKAQ; Peptide with targeting and/or antimicrobial activity)
test_readout: Activities
result: G B
--
substance: PF-550 (STENGWQEFESYADVGVDPRRYVPL; Peptide with targeting and/or antimicrobial activity)
test_readout: Activities
result: G B
--
substance: PF-454 (MSVFVPVTNIFMFIMSPIFNVNLLHFKVYI; Peptide with targeting and/or antimicrobial activity)
test_readout: Activities
result: G B

###

# System: bacteria
# assay_comment: Binding of targeting peptides to microorganisms (Table 3)
# run_parameters: peptide binding in aqueous buffers that varied depending on peptide solubility; preferably 1x PBS
test_readout: Target(s) (microorganism bound by the targeting peptide)

substance: PF-654 (chain 1 LSGRLAGRR; chain 2 LSGRLAGRR; Peptide with targeting and/or antimicrobial activity)
tested_target: bacteria
result: Mycobacteria spp
//
substance: PF-661 (chain 1 PDEDIRRRAILPPAGPCRPMSPE; chain 2 PDEDIRRRAILPPAGPCRPMSPE; Peptide with targeting and/or antimicrobial activity)
tested_target: bacteria
result: Mycobacteria spp
//
substance: PF-666 (chain 1 PNRRSRPR; chain 2 PNRRSRPR; Peptide with targeting and/or antimicrobial activity)
tested_target: bacteria
result: Mycobacteria spp
//
substance: PF-786 (LSERERRRLKRGII; Peptide with targeting and/or antimicrobial activity)
tested_target: bacteria
result: Mycobacteria spp.
//
substance: PF-783 (FTSEVRGVFTYRVNKAGLITNMRGYWNLDMMTFGNQE; Peptide with targeting and/or antimicrobial activity)
tested_target: bacteria
result: Mycobacteria spp.

###

# Tested on: microorganisms
# assay_comment: Morphology, biofilm and growth disruption by peptides (Table 5)
# Type: cell-based
# Set-up: key: A: Peptide aggregates; B: Less hyphal formation; Clumps; Diffuse clumps and small polyps; F: Diffuse growth; H: Thin; I: Growth inhibition; Microcolony formation; Rippled; Small polyps; Thick; W: Halo formation on top, microlonies on bottom
# run_parameters: S. pneumoniae
test_readout: Organism, effect (morphology, biofilm and growth disruption)

substance: PF-451 (MVNYIIGSYMLYREQNNNEALRKFDITLAM; Peptide with targeting and/or antimicrobial activity)
result: S. pneumoniae (C)
//
substance: PF-455 (MARNDDDIKKIKGTLGQSPEVYGERKLPYT; Peptide with targeting and/or antimicrobial activity)
result: S. pneumoniae (A)
//
substance: PF-453 (IIQDIAHAFGY; Peptide with targeting and/or antimicrobial activity)
result: S. pneumoniae (C)
//
substance: PF-651 (chain 1 PRWPTGAGRHR; chain 2 PRWPTGAGRHR; Peptide with targeting and/or antimicrobial activity)
result: S. pneumoniae (H)
//
substance: PF-657 (chain 1 YVANYTITQFGRDFDDRLAVAIHFA; chain 2 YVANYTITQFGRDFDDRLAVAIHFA; Peptide with targeting and/or antimicrobial activity)
result: S. pneumoniae (H)
//
substance: PF-450 (HRNLIILQRTIFI; Peptide with targeting and/or antimicrobial activity)
result: S. pneumoniae (C)
//
substance: PF-624 (VFLLDSYCFVKINL; Peptide with targeting and/or antimicrobial activity)
result: S. pneumoniae (D)
//
substance: PF-704 (chain 1 APAARAAL; chain 2 APAARAAL; Peptide with targeting and/or antimicrobial activity)
result: S. pneumoniae (C)
//
substance: PF-563 (RPELDNELDVVQNSASLDKLQASYN; Peptide with targeting and/or antimicrobial activity)
result: S. pneumoniae (H)
//
substance: PF-485 (KNSMSRSIALID; Peptide with targeting and/or antimicrobial activity)
result: S. pneumoniae (A)
//
substance: PF-567 (QQRVKAVDASLSQVSTQVSGAVASA; Peptide with targeting and/or antimicrobial activity)
result: S. pneumoniae (D)
